Test system: Septoria tritici
Experiment: Test A: wheat leaf blotch, preventive spray on wheat seedlings
Assay type: in vivo
Conditions: 50 ppm, 100 = 100% disease control, 0 = no control relative to controls
Consider the following compounds; for each one, report its Test A disease control rating (wheat leaf blotch).
Give the quantity in %, number only.

Query: State, in one line, measured Test A disease control rating (wheat leaf blotch) of Cc1nn(C)c(Nc2ccccc2[N+](=O)[O-])c1-c1c(F)cccc1Cl
Result: 100

Query: State, in one line, measured Test A disease control rating (wheat leaf blotch) of COc1ccc(Nc2c(-c3ccc(C#N)cc3Cl)c(C)nn2C)c([N+](=O)[O-])c1
Result: 100

Query: State, in one line, measured Test A disease control rating (wheat leaf blotch) of Cc1nn(C)c(Nc2cc(Cl)ccc2[N+](=O)[O-])c1-c1ccc(F)cc1Cl
Result: 85

Query: State, in one line, measured Test A disease control rating (wheat leaf blotch) of COc1cc(F)c(-c2c(C)nn(C)c2Nc2c(C)cccc2[N+](=O)[O-])c(F)c1
Result: 100

Query: State, in one line, measured Test A disease control rating (wheat leaf blotch) of Cc1cccc([N+](=O)[O-])c1Nc1c(-c2ccc(F)cc2Cl)c(C)nn1C
Result: 99

Query: State, in one line, measured Test A disease control rating (wheat leaf blotch) of Cc1nn(C)c(Nc2c(F)cc(Cl)cc2[N+](=O)[O-])c1-c1ccc(Cl)cc1Cl
Result: 100

Query: State, in one line, measured Test A disease control rating (wheat leaf blotch) of Cc1cccc([N+](=O)[O-])c1Nc1c(-c2c(F)cc(F)cc2F)c(C)nn1C
Result: 100

Query: State, in one line, measured Test A disease control rating (wheat leaf blotch) of Cc1nn(C)c(Nc2c(F)cccc2[N+](=O)[O-])c1-c1c(Cl)cccc1Cl
Result: 100

* * *

Tested on: Botrytis cinerea
Experiment: Test E: tomato Botrytis, preventive spray on tomato seedlings
Type: in vivo
Conditions: Botrytis cinerea, 50 ppm, 100 = 100% disease control, 0 = no control, read-out: Test E disease control rating (tomato Botrytis)
Measure: pest or weed control at 50 ppm (%)
Give the quantity in %, number only.

Query: State, in one line, measured pest or weed control at 50 ppm of Cc1nn(C)c(Nc2c(F)cccc2[N+](=O)[O-])c1-c1ccc(F)cc1Cl [Compound 112]
Result: 100

Query: State, in one line, measured pest or weed control at 50 ppm of Cc1nn(C)c(Nc2c(F)cccc2[N+](=O)[O-])c1-c1ccc(F)cc1Br [Compound 60]
Result: 99

Query: State, in one line, measured pest or weed control at 50 ppm of Cc1nn(C)c(Nc2c(Cl)cc(F)cc2[N+](=O)[O-])c1-c1ccc(C#N)cc1Cl [Compound 18]
Result: 100

Query: State, in one line, measured pest or weed control at 50 ppm of Cc1cc(F)c(Nc2c(-c3ccc(C#N)cc3Cl)c(C)nn2C)c([N+](=O)[O-])c1 [Compound 127]
Result: 100

Query: State, in one line, measured pest or weed control at 50 ppm of Cc1nn(C)c(Nc2ccc(F)cc2[N+](=O)[O-])c1-c1ccc(F)cc1Cl [Compound 111]
Result: 100

Query: State, in one line, measured pest or weed control at 50 ppm of Cc1nn(C)c(Nc2c(F)cc(Cl)cc2[N+](=O)[O-])c1-c1ccc(F)cc1Cl [Compound 121]
Result: 100

Query: State, in one line, measured pest or weed control at 50 ppm of COc1cc(F)c(Nc2c(-c3ccc(F)cc3F)c(C)nn2C)c([N+](=O)[O-])c1 [Compound 57]
Result: 100

Query: State, in one line, measured pest or weed control at 50 ppm of Cc1cc(F)c(Nc2c(-c3ccc(F)cc3Cl)c(C)nn2C)c([N+](=O)[O-])c1 [Compound 93]
Result: 100

Query: State, in one line, measured pest or weed control at 50 ppm of COc1cc(F)c(Nc2c(-c3c(F)cccc3Cl)c(C)nn2C)c([N+](=O)[O-])c1 [Compound 23]
Result: 97

Query: State, in one line, measured pest or weed control at 50 ppm of Cc1nn(C)c(Nc2c(F)cccc2[N+](=O)[O-])c1-c1c(F)cc(F)cc1Cl [Compound 68]
Result: 100
